Known Binding affinity (RU) of a selection of binders
Target or system: acetylcholine receptor
Test description: SPR, AchR immobilised, peptide 10 uM
Field format: number, assumed RU, no unit text.

For orientation, consider the following solved cases.
>  <Binder>
KRFMNK [6mer-1-1106]

>  <Binding affinity (RU)>
39

$$$$
>  <Binder>
RRCNNR [6mer-1-650]

>  <Binding affinity (RU)>
18

$$$$
>  <Binder>
KKYNGK [6mer-1-642]

>  <Binding affinity (RU)>
24

$$$$

Need Binding affinity (RU) of RKDTAR [6mer-1-632] , thanks.
17

Check KRTCGR [6mer-1-1074] too.
24

Same question, RKTWFR [6mer-1-644] this time
31

What about this binder? KRPDNR [6mer-1-626]
27

Would you mind doing RKPEPR [6mer-1-1096] as well?
23

Would you kindly repeat that for RKPKWR [6mer-1-661] ?
14

Same question, RRYSDR [6mer-1-631] this time
13

Repeat with KKDDGK [6mer-1-1091]
32

Can you check KRDKAK [6mer-1-1065] next?
23

Now consider RKKEMK [6mer-1-658] .
20

Then what about the binder KKFWEK [6mer-1-648] ?
17

What do you get for KKDEIR [6mer-1-1124] ?
21

Same read-out for RRETHK [6mer-1-1088] ?
38
